Overview of recorded Pre-emergence action against POLCO in % for various compounds
- Test system: Polygonum convolvulus (POLCO)
- TEST METHOD NOTES: Pre-emergence herbicidal action against POLCO
- Assay type: in vivo
- CONDITION SET: dosage 80 g/ha
Reply numerically in %, unit not repeated.

- COMPOUND: "CCOC(=O)[C@@H](C)Oc1nn(-c2nc(F)ccc2F)c(-c2cncc(F)c2)c1Br"
  UNITS TEXT: "%"
  OBSERVED MEASUREMENT: 90
- COMPOUND: "COC(=O)C(C)COC(=O)C(C)Oc1nn(-c2ccccn2)c(-c2ccc(F)nc2)c1Cl (stereo not shown)"
  UNITS TEXT: "%"
  OBSERVED MEASUREMENT: 80
- COMPOUND: "CCOC(=O)[C@@H](C)Oc1nn(-c2ncccc2F)c(-c2ccc(F)nc2)c1C1CC1"
  UNITS TEXT: "%"
  OBSERVED MEASUREMENT: 90

// switching to the query compound
Request: Quick one: Pre-emergence action against POLCO in % for `C[C@@H](Oc1nn(-c2ncccc2F)c(-c2ccc(F)nc2)c1C(F)(F)F)C(=O)O` ?
Response: 100

---

- Tested on: Polygonum convolvulus (POLCO)
- TEST METHOD NOTES: Pre-emergence herbicidal action against POLCO
- Assay type: in vivo
- CONDITION SET: dosage 320 g/ha
Measured Pre-emergence action against POLCO in % of individual entries
Numeric answer only, unit % assumed.

# annotated cases, reported Pre-emergence action against POLCO in % shown
- COMPOUND STRING: "CCOC(=O)[C@@H](C)Oc1nn(-c2ncccc2F)c(-c2ccc(F)nc2)c1F"
  Pre-emergence action against POLCO in % [%]: 90
- COMPOUND STRING: "COCCOC(=O)COc1nn(-c2cccc(C)n2)c(-c2ccc(F)nc2)c1Cl"
  Pre-emergence action against POLCO in % [%]: 80
- COMPOUND STRING: "C=C(COC(=O)[C@@H](C)Oc1nn(-c2ccccn2)c(-c2ccc(F)nc2)c1Cl)C(=O)OC"
  Pre-emergence action against POLCO in % [%]: 90

# context switch: different compound, same Pre-emergence action against POLCO in %
Request: Please report the recorded Pre-emergence action against POLCO in % for `COC(=O)[C@@H](C)Oc1nn(-c2ncccc2F)c(-c2ccc(F)nc2)c1C(F)(F)F` .
Response: 100

---

- Test system: Alopecurus myosuroides (ALOMY)
- TEST METHOD NOTES: Pre-emergence herbicidal action against ALOMY
- Type: in vivo
- CONDITION SET: 320 g/ha; scored visually after about 3 weeks; 100% = plants have died
MEASURED METRIC: Pre-emergence action against ALOMY (%)
Hi! Could you send only the number? It should be in %, unit omitted.

Use these answered entries as a reference point.
- COMPOUND: "CS(=O)(=O)NC(=O)COc1nn(-c2ncccc2F)c(-c2ccc(F)nc2)c1Br"
  OBSERVED MEASUREMENT: 100
- COMPOUND: "CCOC(=O)COc1nn(-c2ncccc2C)c(-c2cncc(F)c2)c1Br"
  OBSERVED MEASUREMENT: 100
- COMPOUND: "CC(C)C(Oc1nn(-c2ccccn2)c(-c2ccc(F)nc2)c1Br)C(=O)O (stereo not shown)"
  OBSERVED MEASUREMENT: 80
- COMPOUND: "CCOC(=O)[C@@H](C)Oc1nn(-c2nc(F)ccc2F)c(-c2cncc(F)c2)c1Cl"
  OBSERVED MEASUREMENT: 100
- COMPOUND: "COCCOC(=O)[C@@H](C)Oc1nn(-c2ncccc2F)c(-c2ccc(F)nc2)c1Br"
  OBSERVED MEASUREMENT: 100
- COMPOUND: "COCCOC(=O)COc1nn(-c2ncccc2C(F)(F)F)c(-c2cncc(F)c2)c1Br"
  OBSERVED MEASUREMENT: 80
- COMPOUND: "O=C(O)COc1nn(-c2ncccc2F)c(-c2ccc(F)nc2)c1Br [Example I-17]"
  OBSERVED MEASUREMENT: 100
- COMPOUND: "CCOC(=O)COc1nn(-c2ccccn2)c(-c2ccc(F)nc2)c1C1CC1"
  OBSERVED MEASUREMENT: 90
- COMPOUND: "COCCOCCOC(=O)[C@@H](C)Oc1nn(-c2ncccc2F)c(-c2ccc(F)nc2)c1Br"
  OBSERVED MEASUREMENT: 100
- COMPOUND: "O=C(O)COc1nn(-c2nc(F)ccc2F)c(-c2cncc(F)c2)c1Br"
  OBSERVED MEASUREMENT: 80

Request: // returns reported Pre-emergence action against ALOMY for input `COCCOC(=O)COc1nn(-c2ccccn2)c(-c2ccc(F)nc2)c1Br`
Response: 100

Request: What do we get for `COC(=O)COc1nn(-c2nc(F)ccc2F)c(-c2cncc(F)c2)c1Cl` ?
Response: 90
